Source: the NIST ThermoML archive (doi:10.1016/j.fluid.2013.07.061)

Reported Molar enthalpy of transition or fusion values for the following molecules.
- Measurement Description: Molar enthalpy of transition or fusion
- Reported Conditions: Crystal 3; DSC
Express the result in kcal/mol but write the number alone.

// solved cases for Molar enthalpy of transition or fusion follow
CCC[N+]1(C)CCCCC1.F[P-](F)(F)(F)(F)F [1-methyl-1-propylpiperidinium hexafluorophosphate] | 1.89
CCCC[P+](CCCC)(CCCC)CCCC.F[P-](F)(F)(F)(F)F [tetrabutylphosphonium hexafluorophosphate] | 0.433
CCC[N+]1(C)CCCC1.F[P-](F)(F)(F)(F)F [1-methyl-1-propylpyrrolidinium hexafluorophosphate] | 0.66

[ask] Would you kindly share the measured Molar enthalpy of transition or fusion for CCCC[N+](CCCC)(CCCC)CCCC.F[P-](F)(F)(F)(F)F [tetrabutylammonium hexafluorophosphate] ?
[reply] 0.502

====

// reported Triple point temperature for each item listed
- Reported Conditions: Crystal 3; DTA
Numbers after ± are expanded uncertainties.

CCCC[P+](CCCC)(CCCC)CCCC.F[P-](F)(F)(F)(F)F [tetrabutylphosphonium hexafluorophosphate] | 265.37 ± 0.39 K
CCC[N+]1(C)CCCCC1.F[P-](F)(F)(F)(F)F [1-methyl-1-propylpiperidinium hexafluorophosphate] | 310.6 ± 0.73 K
CCC[N+]1(C)CCCC1.F[P-](F)(F)(F)(F)F [1-methyl-1-propylpyrrolidinium hexafluorophosphate] | 348.58 ± 1.3 K

[ask] Endpoint output: Triple point temperature of CCCC[N+](CCCC)(CCCC)CCCC.F[P-](F)(F)(F)(F)F [tetrabutylammonium hexafluorophosphate] . Value?
[reply] 303.95 ± 0.39 K

====

Quick list: Molar enthalpy of transition or fusion per entry.
- Measurement Description: Molar enthalpy of transition or fusion
- Reported Conditions: Crystal 1; DSC
The reply should contain only the number, in kcal/mol.

CCC[N+]1(C)CCCC1.F[P-](F)(F)(F)(F)F [1-methyl-1-propylpyrrolidinium hexafluorophosphate] | 0.875
CCCC[P+](CCCC)(CCCC)CCCC.F[P-](F)(F)(F)(F)F [tetrabutylphosphonium hexafluorophosphate] | 3.51
CCC[N+]1(C)CCCCC1.F[P-](F)(F)(F)(F)F [1-methyl-1-propylpiperidinium hexafluorophosphate] | 1.23

// switching to the query compound
[ask] Give the measured Molar enthalpy of transition or fusion of CCCC[N+](CCCC)(CCCC)CCCC.F[P-](F)(F)(F)(F)F [tetrabutylammonium hexafluorophosphate] .
[reply] 3.92

====

Recorded measurements of Normal melting temperature, one per entry
- Reported Conditions: Crystal 1; DTA
Give the number; °C is assumed, so skip it.

The cases that follow already have their Normal melting temperature on record.
CCC[N+]1(C)CCCCC1.F[P-](F)(F)(F)(F)F [1-methyl-1-propylpiperidinium hexafluorophosphate] | 95.1
CCC[N+]1(C)CCCC1.F[P-](F)(F)(F)(F)F [1-methyl-1-propylpyrrolidinium hexafluorophosphate] | 110.5
CCCC[P+](CCCC)(CCCC)CCCC.F[P-](F)(F)(F)(F)F [tetrabutylphosphonium hexafluorophosphate] | 225.5

[ask] Look up Normal melting temperature for this compound: CCCC[N+](CCCC)(CCCC)CCCC.F[P-](F)(F)(F)(F)F [tetrabutylammonium hexafluorophosphate]
[reply] 251.1
